# MEASURED ON: T1, human NKp46 (human, UniProt O76036 22-304)
# T1 construct: also called CD335; NCR1
# ASSAY NOTES: flow cytometry, HEK293F cells transfected with human NKp46
ENDPOINT LABEL: Kd (nM)

BINDER: NKp46-hz5D7v4-Fc* (Fc fusion, VHH-Fc fusion with an IgG1 Fc lacking a hinge (Fc*)) EVQLVESGGGEVQPGGSLRLSCAASGRTFASAAMGWFRQAPGKEREFVAAISRSDDTYYADSVKGRFTISRDNAKNTVYLQMSSLRAEDTAVYYCAAVVPTYGNNIYVHSAAYNYWGQGTLVTVKPGGGGPSVFLFPPKPKDTLMISRTPEVTCVVVDVSHEDPEVKFNWYVDGVEVHNAKTKPREEQYNSTYRVVSVLTVLHQDWLNGKEYKCKVSNKALPAPIEKTISKAKGQPREPQVYTLPPSRDELTKNQVSLTCLVKGFYPSDIAVEWESNGQPENNYKTTPPVLDSDGSFFLYSKLTVDKSRWQQGNVFSCSVMHEALHNHYTQKSLSLSPG
ENDPOINT LABEL: Kd
QUANTITATIVE READOUT: 0.189
